Target: L-lactate dehydrogenase (Plasmodium falciparum (isolate CDC / Honduras)) (UniProt Q27743)
Sequence (Q27743 whole entry, looked up): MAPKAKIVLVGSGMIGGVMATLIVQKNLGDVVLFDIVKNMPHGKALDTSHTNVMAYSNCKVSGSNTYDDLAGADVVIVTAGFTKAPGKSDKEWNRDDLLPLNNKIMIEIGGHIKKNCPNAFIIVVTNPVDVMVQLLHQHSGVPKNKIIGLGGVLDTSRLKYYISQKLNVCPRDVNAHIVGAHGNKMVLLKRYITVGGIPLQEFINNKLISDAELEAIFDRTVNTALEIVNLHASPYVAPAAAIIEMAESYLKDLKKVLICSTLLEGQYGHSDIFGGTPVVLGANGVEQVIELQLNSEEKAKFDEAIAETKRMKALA
Assay: PfLDH activity inhibition – cell lysate, 3D7 strain, counter-screen for P. falciparum growth inhibition project (AID 2304);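 also: 0% = vehicle and 100% = reference inhibitor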
Conditions: P. falciparum 3D7 crude extract, LDH APAD/NBT absorbance; at 2 µM; active compounds read high
MEASURED PARAMETER: inhibition (%)
Report only the number, with the unit % understood.

Past entries and their recorded results:
input: What value of measured inhibition is listed for COc1ccc2nccc([C@@H](O)CN3CCC(NC(=O)[C@@H]4Cc5ccccc5CN4C(=O)OC(C)(C)C)CC3)c2c1 ?
output: 4

input: What value of measured inhibition is listed for CC1(C)N=C(N)N=C(N)N1OCc1cccc(C#N)c1 ?
output: 5

input: What value of measured inhibition is listed for Cc1cc(NCCc2ccccc2)nc(NC(=NCC(=O)OC(C)(C)C)Nc2ccc(C(F)(F)F)cc2)n1 ?
output: 2

input: What value of measured inhibition is listed for Cc1nn(-c2cccc(Cl)c2)c2c1C(C(=O)c1ccc3c(c1)OCO3)CC(=O)N2 (centres undefined) ?
output: -5

input: What value of measured inhibition is listed for Cc1cc(NN=Cc2ccc(F)cc2)c2cc(C(F)(F)F)ccc2n1 ?
output: -2

Others:
input: What value of measured inhibition is listed for C1=CN(Cc2ccccc2)C=CC1=C1C=Nc2ccccc21 ?
output: -3

input: What value of measured inhibition is listed for O=C(Nc1ccc(Cl)c(Cl)c1)N1CCc2cc3nccc(N4CCN5CCC[C@H]5C4)c3cc21 ?
output: -7

input: What value of measured inhibition is listed for CN1CCCC(CN2CCN(Cc3cccc(-c4ccc(-c5nc6ccccc6[nH]5)s4)c3)CC2)C1 (centres undefined) ?
output: -6

input: What value of measured inhibition is listed for O=C1C[C@@H]([S@@](=O)Cc2nccs2)N1CCOCCCCCCc1ccc(Cl)cc1 ?
output: 1

* * *

Reported growth inhibition values for a set of compounds
Assay: antimalarial activity against Dd2 strain (AID 2302);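 also: 0% = DMSO untreated growth and 100% = chloroquine plus artemisinin killed control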
Conditions: P. falciparum Dd2 in RBCs, LDH growth readout, 72 h; at 2 µM; active compounds read high
Report only the number, with the unit % understood.

Past entries and their recorded results:
input: What value of measured growth inhibition is listed for COc1ccc(S(=O)(=O)Nc2ccc(C(=O)NCc3ccccc3C(F)(F)F)cc2)cc1N1CCN(CC2CC2)CC1 ?
output: 5

input: What value of measured growth inhibition is listed for CC(=O)Nc1ncc(C(=O)Nc2cccc(-c3cccc(-c4nc5c(C)cccc5[nH]4)c3)c2)s1 ?
output: 64

input: What value of measured growth inhibition is listed for Cc1[nH]c(C)c(-c2ccc(OCc3ccc(F)cc3)cc2)c(=O)c1Br ?
output: 97

input: What value of measured growth inhibition is listed for CCOC(=O)[C@H](Cc1cc([N+](=O)[O-])c(Oc2ccc(OC)c(Cc3ccc(OC)c(C(C)C)c3)c2)c([N+](=O)[O-])c1)NC(=O)C(F)(F)F ?
output: -3

# context switch: different compound, same growth inhibition
input: What value of measured growth inhibition is listed for COc1ccc2nccc([C@@H](O)CN3CCC(NCc4nc5ccccc5[nH]4)CC3)c2c1 ?
output: 2

* * *

Molecular target: Plasmodium falciparum protein kinase 6 (PK6, PF3D7_1337100) (UniProt Q8IDW1)
Experiment: PfPK6 kinase inhibitors, biochemical, TCAMS library (AID 1159586)
Settings: recombinant PfPK6, Kinase-Glo ATP depletion luminescence
Entries with a potency or affinity are not part of this list. Activity calls are given as the source filed them. How the calls were made is not given here.
MEASURED PARAMETER: outcome

input: What value of measured outcome is listed for CC1N=C(N)N=C(N)N1OCc1cccc2ccccc12 (stereo not drawn) ?
output: inactive

input: What value of measured outcome is listed for CS(=O)(=O)N1CC2(CCN(CCC(NC(=S)Nc3ccccc3)c3ccc(Cl)c(Cl)c3)CC2)c2ccccc21 (stereo not drawn) ?
output: inactive

input: What value of measured outcome is listed for CN1CCN(c2ccc(Nc3nc(N)c4ccn(C5CCC5)c4n3)cc2)CC1 ?
output: inactive

input: What value of measured outcome is listed for c1cc(CNCCN2CCNCC2)cc(-c2cccc(-c3nc4ccccc4[nH]3)c2)c1 ?
output: inactive

input: What value of measured outcome is listed for c1ccc2c(c1)ncn2-c1ccnc(Nc2ccncc2)n1 ?
output: inactive

Others:
input: What value of measured outcome is listed for NC1CCN(c2nc(NCCCc3ccc(O)cc3)nc(NCc3ccccc3-c3ccccc3)n2)CC1 ?
output: inactive

input: What value of measured outcome is listed for COc1ccc2nccc(N3CCC(SCCNCc4ccc5c(n4)NC(=O)CO5)C3)c2n1 (stereo not drawn) ?
output: inactive

input: What value of measured outcome is listed for NC(=O)Nc1ccc2c(Nc3ccc(OCc4ccccc4)cc3)ncnc2c1 ?
output: inactive

input: What value of measured outcome is listed for Cc1cnc(CN(Cc2ccc(-c3ccc(CNCCc4ccc(S(C)(=O)=O)cc4)cn3)cc2)C(=O)c2nn(-c3ccccc3)nc2C)cn1 ?
output: inactive

input: What value of measured outcome is listed for COC(=O)c1cccc(CN(CCC(O)(C(F)(F)F)C(F)(F)F)C(=O)CC2CCCC2)c1 ?
output: inactive

input: What value of measured outcome is listed for CCNc1cc(C)nc(Nc2ccc(F)cc2)n1 ?
output: inactive

input: What value of measured outcome is listed for O=S(=O)(NC1CCN(c2ccnc3ccccc23)C1)c1ccc(OC(F)(F)F)cc1 (stereo not drawn) ?
output: inactive

Attribution: PubChem BioAssay
